- PROTOCOL: stability in the process (DSC crystal form purity, HPLC relevant substances)
- Assay type: physicochemical
- CONDITION_SET: HPLC, during formulation process
PROPERTY_LABEL: Relevant substances (%)

SMILES_DATA	PROPERTY_LABEL	MEAS_VALUE
COc1ccc2cccc(CCNC(C)=O)c2c1	Relevant substances	0.42
